src = paper PMC7470104

- System: T-47D cells
- procedure text: SRB anti-proliferative assay, T-47D
- Type: cell-based
- measurement context: Homo sapiens, T47D; SRB assay, 48 h, breast cancer T-47D; mean ± SD of three experiments; read-out: IC50 T-47D
# key: entry, value: IC50
Supply the numeric figure in nM, leaving out any unit text.

# molecule, IC50 / nM
rows = [
    ("O=C(NC1C2CC3CC(C2)CC1C3)c1cc(C(F)(F)F)c(NCc2ccccc2C(F)(F)F)nn1 (stereo not drawn) [11e]", 2620),
    ("CC(C)(C)NC(=O)c1cc(C(F)(F)F)c(NC2CCCC2)nn1 [11f]", 1940),
    ("CCCCNC(=O)c1cc(C(F)(F)F)c(N2CCOCC2)nn1 [11i]", 440),
]

CC(C)(C)NC(=O)c1cc(C(F)(F)F)c(NCc2ccccc2C(F)(F)F)nn1 [11h] yielded IC50 of 1600

CCCCNc1nnc(C(=O)NC2C3CC4CC(C3)CC2C4)cc1C(F)(F)F (stereo not drawn) [11b] yielded IC50 of 1370

O=C(NCC1CCOCC1)c1cc(C(F)(F)F)c(NCC2CC2)nn1 [11l] yielded IC50 of 1570

----------
quantity name: melting point

Recorded results for 3 compounds are shown here.
# compound, melting point
rows = [
    ("CC(C)(C)NC(=O)c1cc(C(F)(F)F)c(N2CCOCC2)nn1 [11g]", "121 to 122 °C"),
    ("O=C(NC1C2CC3CC(C2)CC1C3)c1cc(C(F)(F)F)c(N2CCOCC2)nn1 (centres unmarked) [11d]", "177 to 178 °C"),
    ("CC(C)(C)NC(=O)c1cc(C(F)(F)F)c(NC2CCCC2)nn1 [11f]", "62 to 63 °C"),
]

CCCCNc1nnc(C(=O)NC2C3CC4CC(C3)CC2C4)cc1C(F)(F)F (centres unmarked) [11b] yielded melting point of 110 to 111 °C

CC(C)(C)NC(=O)c1cc(C(F)(F)F)c(NCc2ccccc2C(F)(F)F)nn1 [11h] yielded melting point of 132 to 133 °C
